The following compounds are shown together with reported MIC values.
# System: Enterococcus faecalis
# METHOD_DESCRIPTION: Antibacterial activity against Enterococcus faecalis NCTC 12697 after 16 hrs by microdilution method
# Format: functional
# EXPERIMENTAL_SETUP: NCTC 12697, 16 h

[
  {
    "COMPOUND_SMILES": "O=C(O)/C(O)=C/C(=O)c1ccc(-n2ccnc2)cc1",
    "MIC (µM)": 496
  },
  {
    "COMPOUND_SMILES": "O=C(O)/C(O)=C/C(=O)c1ccc2c(c1)CCCC2",
    "MIC (µM)": 260
  },
  {
    "COMPOUND_SMILES": "CCCCc1ccc(C(=O)/C=C(\\O)C(=O)O)cc1",
    "MIC (µM)": 129
  }
]

The values you see were collected from ChEMBL document CHEMBL4138171.
